# ASSAY NOTES: activity coefficient (dimensionless); of the first substance listed, at infinite dilution; xn = mol fraction of the nth substance listed
# MEASUREMENT CONDITIONS: 353.15 K; 101.33 kPa; Liquid; Chromatography; x1 = 0
EXPERIMENTAL ENDPOINT: activity coefficient

COMPOUND	VALUE
CCC(C)O (stereo not drawn) [butan-2-ol] + CCC[n+]1ccn(C)c1.[Br-]	0.471

1 = CCCCO [butan-1-ol] + CCC[n+]1ccn(C)c1.[Br-]
2 = CCCCCC [hexane] + CCC[n+]1ccn(C)c1.[Br-]
For the pair 1 and 2 , which entry has the numerically smaller recorded activity coefficient? // respond with label for picked entry
1
(1: 0.388, 2: 92.5)

====

# ASSAY NOTES: activity coefficient (dimensionless); of the first substance listed, at infinite dilution; xn = mol fraction of the nth substance listed
# MEASUREMENT CONDITIONS: 343.15 K; 101.33 kPa; Liquid; Chromatography; x1 = 0
EXPERIMENTAL ENDPOINT: activity coefficient

Field: example entries. Status: answers known.
COMPOUND	activity coefficient
CCC(C)O (stereo not given) [butan-2-ol] + CCC[n+]1ccn(C)c1.[Br-]	0.485
CCOC(C)=O [ethyl acetate] + CCC[n+]1ccn(C)c1.[Br-]	4.07
Cc1cccc(C)c1 [1,3-dimethylbenzene] + CCC[n+]1ccn(C)c1.[Br-]	6.18

a = CC#N [acetonitrile] + CCC[n+]1ccn(C)c1.[Br-]
b = CC(C)CC(C)(C)C [2,2,4-trimethylpentane] + CCC[n+]1ccn(C)c1.[Br-]
Name the one with the greater activity coefficient value, either a or b as given. Give the label of your selection.
b

====

# ASSAY NOTES: activity coefficient (dimensionless); of the first substance listed, at infinite dilution; xn = mol fraction of the nth substance listed
# MEASUREMENT CONDITIONS: 343.15 K; 101.33 kPa; Liquid; Chromatography; x1 = 0
EXPERIMENTAL ENDPOINT: activity coefficient

COMPOUND	VALUE
C1COCCO1 [1,4-dioxane] + CCC[n+]1ccn(C)c1.[Br-]	1.11
CCCCCC [hexane] + CCC[n+]1ccn(C)c1.[Br-]	95.6
CC(C)CO [2-methyl-1-propanol] + CCC[n+]1ccn(C)c1.[Br-]	0.39
Cc1ccccc1 [toluene] + CCC[n+]1ccn(C)c1.[Br-]	3.33
C1=CCCCC1 [cyclohexene] + CCC[n+]1ccn(C)c1.[Br-]	19.7

1 = CC1CCCCC1 [methylcyclohexane] + CCC[n+]1ccn(C)c1.[Br-]
2 = CCCCO [butan-1-ol] + CCC[n+]1ccn(C)c1.[Br-]
Which of these two has the smaller recorded activity coefficient: 1 or 2 ? # reply format: chosen label
2

====

# ASSAY NOTES: activity coefficient (dimensionless); of the first substance listed, at infinite dilution; xn = mol fraction of the nth substance listed
# MEASUREMENT CONDITIONS: 333.15 K; 101.33 kPa; Liquid; Chromatography; x1 = 0
EXPERIMENTAL ENDPOINT: activity coefficient

COMPOUND	VALUE
CCCCCCCCCC [decane] + CCC[n+]1ccn(C)c1.[Br-]	124
C1CCOC1 [tetrahydrofuran] + CCC[n+]1ccn(C)c1.[Br-]	2.19

A = CC(C)O [propan-2-ol] + CCC[n+]1ccn(C)c1.[Br-]
B = CC1CCCCC1 [methylcyclohexane] + CCC[n+]1ccn(C)c1.[Br-]
Looking only at measured activity coefficient, which entry is lower, A or B ? Record your answer as the label of the chosen record.
A
(A: 0.359, B: 79.9)

A = CCC(C)O (configuration not stated) [butan-2-ol] + CCC[n+]1ccn(C)c1.[Br-]
B = CCCO [propan-1-ol] + CCC[n+]1ccn(C)c1.[Br-]
# query: argmin of activity coefficient over A and B To answer, give the label that identifies your chosen option.
B

====

# ASSAY NOTES: activity coefficient (dimensionless); of the first substance listed, at infinite dilution; xn = mol fraction of the nth substance listed
# MEASUREMENT CONDITIONS: 363.15 K; 101.33 kPa; Liquid; Chromatography; x1 = 0
EXPERIMENTAL ENDPOINT: activity coefficient

MOLECULE	activity coefficient
ClC(Cl)Cl [trichloromethane] + CCC[n+]1ccn(C)c1.[Br-]	0.2

P = CCCCCO [pentan-1-ol] + CCC[n+]1ccn(C)c1.[Br-]
Q = CCOC(C)=O [ethyl acetate] + CCC[n+]1ccn(C)c1.[Br-]
Endpoint returns whichever of P and Q has the numerically higher activity coefficient. Respond with the label that goes with your answer.
Q

====

# ASSAY NOTES: activity coefficient (dimensionless); of the first substance listed, at infinite dilution; xn = mol fraction of the nth substance listed
# MEASUREMENT CONDITIONS: 343.15 K; 101.33 kPa; Liquid; Chromatography; x1 = 0
EXPERIMENTAL ENDPOINT: activity coefficient

Solved entries (count: 3):
MOLECULE	activity coefficient
CO [methanol] + CCC[n+]1ccn(C)c1.[Br-]	0.106
ClC(Cl)Cl [trichloromethane] + CCC[n+]1ccn(C)c1.[Br-]	0.16
CCc1ccccc1 [ethylbenzene] + CCC[n+]1ccn(C)c1.[Br-]	5.84

P = CCCCCCCC [octane] + CCC[n+]1ccn(C)c1.[Br-]
Q = CC(C)CCO [3-methylbutan-1-ol] + CCC[n+]1ccn(C)c1.[Br-]
For this pair, P and Q , which shows a numerically higher activity coefficient? Select an item and report its label.
P
(P: 104, Q: 0.564)

a = CCCCCCCCC [nonane] + CCC[n+]1ccn(C)c1.[Br-]
b = CC(C)O [propan-2-ol] + CCC[n+]1ccn(C)c1.[Br-]
c = C=Cc1ccccc1 [styrene] + CCC[n+]1ccn(C)c1.[Br-]
d = CCO [ethanol] + CCC[n+]1ccn(C)c1.[Br-]
Put the items in order so that reported activity coefficient rises from first to last. Use the labels to give the ranking in the order requested.
d, b, c, a

====

# ASSAY NOTES: activity coefficient (dimensionless); of the first substance listed, at infinite dilution; xn = mol fraction of the nth substance listed
# MEASUREMENT CONDITIONS: 333.15 K; 101.33 kPa; Liquid; Chromatography; x1 = 0
EXPERIMENTAL ENDPOINT: activity coefficient

P = CCO [ethanol] + CCC[n+]1ccn(C)c1.[Br-]
Q = C1=CCCCC1 [cyclohexene] + CCC[n+]1ccn(C)c1.[Br-]
Of the two listed items, P and Q , which carries the larger activity coefficient figure? The response must carry the label of the picked entry.
Q
(Q: 20.6, P: 0.197)

====

# reported activity coefficient; entries follow
# ASSAY NOTES: activity coefficient (dimensionless); of the first substance listed, at infinite dilution; xn = mol fraction of the nth substance listed
# MEASUREMENT CONDITIONS: 333.15 K; 101.33 kPa; Liquid; Chromatography; x1 = 0
Keep the answer to the number alone.

// known answers, use as guide
COMPOUND	VALUE
CC(C)=O [acetone] + CCC[n+]1ccn(C)c1.[Br-]	1.14
Cc1ccc(C)cc1 [1,4-dimethylbenzene] + CCC[n+]1ccn(C)c1.[Br-]	5.8
Cc1cccc(C)c1 [1,3-dimethylbenzene] + CCC[n+]1ccn(C)c1.[Br-]	6.04

// activity coefficient lookup, key: Cc1ccccc1 [toluene] + CCC[n+]1ccn(C)c1.[Br-]
3.11
